Ref: patent US9409952B2

Assay: Metabolic stability in human hepatic microsome
Assay type: in vitro ADME
Settings: microsomes, pH 7.4; human hepatic microsome, NADPH(+); read-out: CL NADPH(+)
Positions of bridges follow the written chain, without caps; N, C: chain ends. Non-standard residues stand in square brackets, D forms with d. Residues, ends and D or L forms follow the SMILES beside them. *: point of attachment. NMePhe(3-Cl) = CN[C@@H](Cc1cccc(Cl)c1)C(=O)O; NMeF = CN[C@@H](Cc1ccccc1)C(=O)O; NMeI = CC[C@H](C)[C@H](NC)C(=O)O; NMeL = CN[C@@H](CC(C)C)C(=O)O; NMeA = CN[C@@H](C)C(=O)O; Piperidide = C1CCN(*)CC1; β3hA = C[C@H](N)CC(=O)O; tBu = CC(C)(C)*
Assay Readout: microsomal CLint at 1 uM

q: Given CC[C@H](C)[C@H](NC(=O)[C@H](CC(C)C)NC(=O)[C@H](CC(C)C)N(C)C(=O)[C@H](Cc1cccc(Cl)c1)N(C)C(=O)[C@@H](NC(=O)[C@@H]1CC(=O)N[C@@H](Cc2ccccc2)C(=O)N[C@@H]([C@@H](C)O)C(=O)N[C@@H](CC(C)C)C(=O)N(C)[C@@H](CC(C)C)C(=O)N(C)[C@@H](C)C(=O)N(C)[C@@H](CC(C)C)C(=O)N1)[C@@H](C)CC)C(=O)N1CCCCC1 [DP-914] (FTL[NMeL][NMeA][NMeL]DI[NMePhe(3-Cl)][NMeL]LI-Piperidide; lactam N-7) , state its recorded microsomal CLint at 1 uM.
a: 29 µL/min/mg

q: # get_value(readout='microsomal CLint at 1 uM', item= CC[C@H](C)[C@H]1C(=O)N(C)[C@@H](C)C(=O)N(C)[C@@H](CC(C)C)C(=O)N[C@@H](COC(C)(C)C)C(=O)N(C)[C@@H](CC(C)C)C(=O)N[C@@H](C)CC(=O)N(C)[C@@H](C)C(=O)N(C)[C@@H](Cc2ccccc2)C(=O)N[C@@H](CC(C)C)C(=O)N(C)[C@@H](CC(C)C)C(=O)N[C@@H]([C@@H](C)O)C(=O)N1C [DP-817] (cyclo(L[NMeL]T[NMeI][NMeA][NMeL]S(tBu)[NMeL][β3hA][NMeA][NMeF])) )
a: 165 µL/min/mg
